Documented cell viability across a set of compounds
Tested on: Calu-3
Assay Procedure: cell viability relative to DMSO; higher = less toxic
Stated Conditions: 72 h; 1000 nM
Write it as a number; the unit % goes unstated.

Field: example entries. Status: answers known.
Compound	Unit Abbrev	cell viability
O=C1CCC[C@@H]2[C@H]3CCCN4CCC[C@@H](CN12)[C@@H]34	%	98.5
Cn1cnc2c(NCc3ccccc3)nc(NCCO)nc21	%	99.9
CCCCCNC(=N)N/N=C/c1c[nH]c2ccc(OC)cc12	%	91.4
CC1(C)S[C@@H]2[C@H](NC(=O)C(C(=O)O)c3ccccc3)C(=O)N2[C@H]1C(=O)O (stereo not given in full)	%	105

// moving on: another record for cell viability
## Task Notebook: pull reported cell viability for Calu-3, entry `COc1cc2c(NC3CCN(C4CCCCC4)CC3)nc(N3CCCN(C(C)C)CC3)nc2cc1OCCCN1CCCCC1`
## Result 90.4
